# System: HCT-15 colon
# EXPERIMENT: NCI tumour cell line growth inhibition, 48 h
METRIC: TGI

CC1=Nc2ccccc2OC(C)=C1N=Nc1ccc2nc(C)[nH]c2c1
> 100 µM
CC(C)(C)c1cc2ccc(C(N)=O)cc2c(=O)[nH]1
> 100 µM
CCN(CC)C(=S)N/N=C/c1cc([N+](=O)[O-])ccc1O
31.6 µM
O=C1NC(=NC(CO)Cc2ccccc2)S/C1=C\c1ccc2ncccc2c1 (centres undefined)
> 25 µM

Below: the item to evaluate.
Input: Requested field: TGI. Item: `COc1ccc(-c2cn[nH]c2-c2cc(OC)c(OC)c(OC)c2)cc1`
Output: 21.8 µM

* * *

# System: NCI-H460 lung
// classify into 1 (yes) = active, 0 (no) = inactive

Input: Status in this test for `Nc1ccc(C2=NNC(=O)Cc3cc4c(cc32)OCCO4)cc1Cl` ?
Output: 0 (no)

Input: Status in this test for Nc1n[nH]c2cc(F)c([C@@H]3Nc4ccc5[nH]ncc5c4[C@H]4C5CCC(C5)[C@@H]34)cc12 (stereo not given in full) ?
Output: 1 (yes)

Input: Status in this test for `Cn1ccc2c3c(Oc4ccc(NC(N)=O)cc4)ccnc3ccc21` ?
Output: 0 (no)

Input: Status in this test for `COc1ccc(CCN=C2NC(=O)/C(=C/c3ccc4ncccc4c3)S2)cc1` ?
Output: 0 (no)

Input: Status in this test for `CCN(Cc1ccc(F)cc1)c1cc(Cl)c(CO)c(Cl)c1` ?
Output: 0 (no)

* * *

# Test system: ACHN renal
# EXPERIMENT: NCI tumour cell line growth inhibition, 48 h
METRIC: TGI

Input: Report TGI for `Cc1cc(-c2nc3ccc(F)cc3s2)ccc1NC(=O)[C@H](C)N` tested on ACHN renal.
Output: 22.9 µM

Input: Report TGI for `O=C1C=CC(=O)c2nc3c(cc21)CCC3` tested on ACHN renal.
Output: 33.1 µM

Input: Report TGI for `N=c1nnc2ccc(Cl)cc2n1O` tested on ACHN renal.
Output: > 100 µM

Input: Report TGI for COP(=O)(OC)C1=c2c(C)noc2=C2C=COC2C1=O (stereo unspecified) tested on ACHN renal.
Output: > 100 µM

Input: Report TGI for `CC(=O)NNc1nc(C)c(C(=O)/C=C/c2ccc(NC(C)=O)cc2)s1` tested on ACHN renal.
Output: > 100 µM

Input: Report TGI for Cc1ccc(NC(=O)CC2Sc3ccccc3NC2=O)cc1C (stereo unspecified) tested on ACHN renal.
Output: > 100 µM

* * *

# Tested on: DLD-1 colon
# EXPERIMENT: NCI tumour cell line growth inhibition, 48 h
TGI by entry:

Consider the following illustrative entries.
COc1ccc(/C=c2\sc3n(c2=O)CCN=3)cc1
> 100 µM
CC(C)(C)c1cc2c(O)c3cccc4c(=O)c5cccc6c5-c(c34)c2c(c1)c6=O
> 100 µM
C=CC[C@H](C[C@H](C[C@H](C[C@H](C[C@H](C[C@H](C[C@H](C[C@H](C[C@H](C[C@H](CCCCC)OC)OC)OC)OC)OC)OC)OC)OC)OC)OC
> 100 µM
O=C(/C=C/c1ccc([N+](=O)[O-])cc1)c1ccc(NCc2nc3ccccc3[nH]2)cc1
15.7 µM
NC(=O)c1ccccc1NC(=O)C(=O)C(C(=O)c1ccc(Cl)c(Cl)c1)C1OC(=O)c2ccccc21 (configuration not stated)
> 100 µM

Input: Report TGI for CCCCCC[C@@H]1CCC2C(CO)[C@@H](O)CC[C@@H]2C1 (some centres not stated) tested on DLD-1 colon.
Output: 34.6 µM

Input: Report TGI for COC(=O)CC(c1ccccc1)C1(c2ccccc2)SCCS1 (configuration not stated) tested on DLD-1 colon.
Output: > 290 µM

Input: Report TGI for `CC(C)(C)c1cc2ccc(C(N)=O)cc2c(=O)[nH]1` tested on DLD-1 colon.
Output: > 100 µM

Input: Report TGI for `COc1ccc2[nH]cc(/C=C(/C)c3ccncc3)c2c1` tested on DLD-1 colon.
Output: > 100 µM

Input: Report TGI for `COc1ccc2cc1Oc1ccc(cc1)C[C@H]1c3cc(c(OC)cc3CCN1C)Oc1c(O)c(OC)cc3c1[C@H](C2)N(C)CC3` tested on DLD-1 colon.
Output: 53.7 µM

Input: Report TGI for S=c1sc2c(n1-c1ccccc1)NC=NC2S (configuration not stated) tested on DLD-1 colon.
Output: > 100 µM

Input: Report TGI for `Cc1ccc(Oc2ccc(C)cc2N)cc1` tested on DLD-1 colon.
Output: > 100 µM
